Listed compounds paired with reported pIC50
system: Plasmodium falciparum; assay: Antiparasitic activity against Plasmodium falciparum K1; assay type: functional, organism-based
pIC50: −log10 of the molar value.
endpoint: pIC50

1. CC[n+]1ccc2c(c1)[nH]c1c(Br)cccc12 ... 5.18
2. C=CC[n+]1ccc2c(c1)[nH]c1ccc(Cl)cc12 ... 6.08
3. Fc1ccc(C[n+]2ccc3c(c2)[nH]c2ccc(Br)cc23)cc1 ... 5.75
4. Brc1ccc2[nH]c3c[n+](CCCc4ccccc4)ccc3c2c1 ... 6.34
5. O=[N+]([O-])c1ccc(C[n+]2ccc3c(c2)[nH]c2ccc(Br)cc23)cc1 ... 5.88
6. CCCC[n+]1ccc2c(c1)[nH]c1ccc(Br)cc12 ... 5.94
7. C=CC[n+]1ccc2c(c1)[nH]c1ccc(Br)cc12.[Br-] ... 6.31
8. Fc1cccc(C[n+]2ccc3c(c2)[nH]c2ccc(Br)cc23)c1 ... 5.67
9. O=C1c2ccccc2-[n+]2ccc3c([nH]c4ccccc43)c21 [FASCAPLYSIN CHLORIDE] ... 6.74
10. C=CC[n+]1ccc2c(c1)[nH]c1c(Br)cccc12 ... 5.17
11. O=[N+]([O-])c1ccc(C[n+]2ccc3c(c2)[nH]c2ccc(Cl)cc23)cc1 ... 5.66
12. Fc1ccc(C[n+]2ccc3c(c2)[nH]c2c(Br)cccc23)cc1 ... 5.48
13. CC[n+]1ccc2c(c1)[nH]c1ccc(Br)cc12.[I-] ... 7.49
14. Clc1ccc2[nH]c3c[n+](CCCc4ccccc4)ccc3c2c1 ... 5.79
15. COC(=O)CCC[n+]1ccc2c(c1)[nH]c1ccc(Cl)cc12 ... 5.50
16. Clc1ccc2[nH]c3c[n+](Cc4ccccc4)ccc3c2c1 ... 5.52
17. Brc1ccc2[nH]c3c[n+](Cc4ccccc4)ccc3c2c1 ... 5.63
18. CCCC[n+]1ccc2c(c1)[nH]c1ccc(Cl)cc12 ... 5.79
19. Brc1cccc2c1[nH]c1c[n+](Cc3ccc4ccccc4c3)ccc12 ... 6.30
20. COC(=O)CCC[n+]1ccc2c(c1)[nH]c1ccc(Br)cc12 ... 5.63
